# SYSTEM NAME: 5-HT1B receptor (Homo sapiens)
# ASSAY PROTOCOL: cAMP accumulation agonist assay at 5-HT1B
# Format: cell-based
# APPLIED CONDITIONS: cAMP, agonist; read-out: 5-HT1B EC50
ASSAY ENDPOINT: EC50 (nM)
Dear colleague, please return just the value in nM, with no unit written.

### Prompt Please respond with reported EC50 (system 5-HT1B receptor (Homo sapiens)) for CCCN1C[C@H](C(=O)NC(CC)CC)C=C2c3cccc4[nH]cc(c34)C[C@H]21 [Compound 6] .
### Response 201

### Prompt Please respond with reported EC50 (system 5-HT1B receptor (Homo sapiens)) for CCCN1C[C@H](C(=O)N(CC)CC)C=C2c3cccc4c3C(CN4)C[C@H]21 (mixture of isomers) [Compound 36] .
### Response 22.7

### Prompt Please respond with reported EC50 (system 5-HT1B receptor (Homo sapiens)) for CCCN1C[C@H](C(=O)N[C@H](C)CC)C=C2c3cccc4[nH]c(Br)c(c34)C[C@H]21 [Compound 46] .
### Response 1180

### Prompt Please respond with reported EC50 (system 5-HT1B receptor (Homo sapiens)) for CCN(CC)C(=O)[C@@H]1C=C2c3cccc4[nH]cc(c34)C[C@H]2N(Cc2ccccc2O)C1 [Compound 16] .
### Response 682

### Prompt Please respond with reported EC50 (system 5-HT1B receptor (Homo sapiens)) for CCCN1C[C@H](C(=O)N2[C@@H](C)C[C@@H]2C)C=C2c3cccc4[nH]c(Br)c(c34)C[C@H]21 [Compound 47] .
### Response 4960

----------
# SYSTEM NAME: 5-HT2B receptor (Homo sapiens, UniProt P41595)
# Construct: host or cells: HEK293
# Sequence (P41595 whole entry): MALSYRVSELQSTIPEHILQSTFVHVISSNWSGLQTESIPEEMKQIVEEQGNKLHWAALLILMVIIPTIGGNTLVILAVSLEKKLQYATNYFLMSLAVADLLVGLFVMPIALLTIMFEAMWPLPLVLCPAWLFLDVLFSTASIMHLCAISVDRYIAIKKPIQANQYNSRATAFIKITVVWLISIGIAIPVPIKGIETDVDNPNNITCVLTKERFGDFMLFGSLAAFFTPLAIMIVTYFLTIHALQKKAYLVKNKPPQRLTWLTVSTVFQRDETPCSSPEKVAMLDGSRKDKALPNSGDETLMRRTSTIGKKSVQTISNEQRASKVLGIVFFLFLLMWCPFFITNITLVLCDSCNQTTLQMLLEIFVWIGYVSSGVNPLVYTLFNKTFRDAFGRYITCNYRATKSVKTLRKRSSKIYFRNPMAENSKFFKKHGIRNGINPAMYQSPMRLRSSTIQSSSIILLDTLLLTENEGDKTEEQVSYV
# ASSAY PROTOCOL: cell-based
ASSAY ENDPOINT: EC50

### Prompt State its EC50: CCN(CC)C(=O)[C@@H]1C=C2c3cccc4[nH]c(Br)c(c34)C[C@H]2N(C)C1 [Compound 35]
### Response > 10 µM

----------
Exercise: state measured 5-HT1B % Act @ Max Dose for each of the molecules provided.
# SYSTEM NAME: 5-HT1B receptor (Homo sapiens, UniProt P28222)
# Sequence (P28222 whole entry): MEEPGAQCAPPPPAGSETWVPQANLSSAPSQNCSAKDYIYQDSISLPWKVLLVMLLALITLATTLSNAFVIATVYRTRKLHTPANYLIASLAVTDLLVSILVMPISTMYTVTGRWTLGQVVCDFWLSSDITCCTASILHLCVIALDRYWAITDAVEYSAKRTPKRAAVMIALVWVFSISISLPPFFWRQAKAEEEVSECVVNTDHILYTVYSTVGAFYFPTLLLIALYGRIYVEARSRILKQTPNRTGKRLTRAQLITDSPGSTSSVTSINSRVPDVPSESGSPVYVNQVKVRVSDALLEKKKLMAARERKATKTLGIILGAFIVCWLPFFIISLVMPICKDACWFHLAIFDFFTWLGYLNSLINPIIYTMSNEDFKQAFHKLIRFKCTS
# ASSAY PROTOCOL: cAMP accumulation agonist assay at 5-HT1B
# Assay type: cell-based
# APPLIED CONDITIONS: cAMP, agonist
# answer = value followed by unit

### Prompt State its 5-HT1B % Act @ Max Dose: CC[C@@H](C)NC(=O)[C@@H]1C=C2c3cccc4[nH]c(Br)c(c34)C[C@H]2N(C)C1
### Response 83.76%

### Prompt State its 5-HT1B % Act @ Max Dose: CN1C[C@H](C(=O)N2CCCC2)C=C2c3cccc4[nH]cc(c34)C[C@H]21
### Response 94.25%

### Prompt State its 5-HT1B % Act @ Max Dose: CCC(CC)NC(=O)[C@@H]1C=C2c3cccc4[nH]c(Br)c(c34)C[C@H]2N(C)C1
### Response 68.53%

### Prompt State its 5-HT1B % Act @ Max Dose: CCCN1C[C@H](C(=O)N2[C@@H](C)C[C@@H]2C)C=C2c3cccc4[nH]cc(c34)C[C@H]21
### Response 96%

### Prompt State its 5-HT1B % Act @ Max Dose: CN1C[C@H](C(=O)N(CCF)CCF)C=C2c3cccc4[nH]cc(c34)C[C@H]21
### Response 94.72%

### Prompt State its 5-HT1B % Act @ Max Dose: CCN(CC)C(=O)[C@@H]1C=C2c3cccc4[nH]cc(c34)C[C@H]2N(CCF)C1
### Response 99.00%

### Prompt State its 5-HT1B % Act @ Max Dose: CCC[C@@H](C)NC(=O)[C@@H]1C=C2c3cccc4[nH]c(Br)c(c34)C[C@H]2N(C)C1
### Response 87.10%

### Prompt State its 5-HT1B % Act @ Max Dose: C=CCN1C[C@H](C(=O)N2[C@@H](C)C[C@@H]2C)C=C2c3cccc4[nH]cc(c34)C[C@H]21
### Response 96.92%

### Prompt State its 5-HT1B % Act @ Max Dose: CCN(CC)C(=O)[C@@H]1C=C2c3cccc4[nH]c(Br)c(c34)C[C@H]2N(C)C1
### Response 76.8%

### Prompt State its 5-HT1B % Act @ Max Dose: C[C@H]1C[C@H](C)N1C(=O)[C@@H]1C=C2c3cccc4[nH]cc(c34)C[C@H]2N(CCCF)C1
### Response 77.16%

### Prompt State its 5-HT1B % Act @ Max Dose: CCCN1C[C@H](C(=O)N(CC)CC)C=C2c3cccc4[nH]c(Br)c(c34)C[C@H]21
### Response 81.46%

### Prompt State its 5-HT1B % Act @ Max Dose: CCN(CC)C(=O)[C@@H]1C=C2c3cccc4c3C(CN4)C[C@H]2N(C)C1 (mixture of isomers)
### Response 90.74%

### Prompt State its 5-HT1B % Act @ Max Dose: CCCN1C[C@H](C(=O)N2[C@@H](C)C[C@@H]2C)C=C2c3cccc4[nH]c(Br)c(c34)C[C@H]21
### Response 76.22%

### Prompt State its 5-HT1B % Act @ Max Dose: CC[C@@H](C)NC(=O)[C@@H]1C=C2c3cccc4[nH]cc(c34)C[C@H]2N(CCC(F)(F)F)C1
### Response 62.14%

### Prompt State its 5-HT1B % Act @ Max Dose: CCCN1C[C@H](C(=O)N[C@H](C)CC)C=C2c3cccc4[nH]c(Br)c(c34)C[C@H]21
### Response 78.76%

----------
Exercise: state measured EC50 for each of the compounds provided.
# SYSTEM NAME: 5-HT1A receptor (Homo sapiens, UniProt P08908)
# Construct: host or cells: CHO cells
# Sequence (P08908 whole entry): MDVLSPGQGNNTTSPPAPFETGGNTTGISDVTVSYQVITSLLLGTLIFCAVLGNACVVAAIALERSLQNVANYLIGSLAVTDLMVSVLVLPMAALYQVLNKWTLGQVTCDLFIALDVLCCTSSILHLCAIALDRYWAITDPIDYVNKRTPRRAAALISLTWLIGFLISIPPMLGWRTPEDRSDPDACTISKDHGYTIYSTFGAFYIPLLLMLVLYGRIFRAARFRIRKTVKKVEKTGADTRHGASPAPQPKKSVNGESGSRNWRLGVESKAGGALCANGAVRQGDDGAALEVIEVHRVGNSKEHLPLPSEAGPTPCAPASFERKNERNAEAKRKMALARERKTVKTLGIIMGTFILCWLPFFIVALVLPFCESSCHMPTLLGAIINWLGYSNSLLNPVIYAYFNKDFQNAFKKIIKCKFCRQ
# ASSAY PROTOCOL: cell-based
# APPLIED CONDITIONS: Ca^2+ flux, agonist; read-out: 5-HT1A EC50
Dear colleague, please return just the value in nM, with no unit written.

### Prompt State its EC50: CCN(CC)C(=O)[C@@H]1C=C2c3cccc4[nH]cc(c34)C[C@H]2N(Cc2ccccn2)C1 [Compound 22]
### Response 7840

### Prompt State its EC50: CCC[C@@H](C)NC(=O)[C@@H]1C=C2c3cccc4[nH]cc(c34)C[C@H]2N(C)C1 [Int17]
### Response 7.01

### Prompt State its EC50: CCCN1C[C@H](C(=O)NC(CC)CC)C=C2c3cccc4[nH]cc(c34)C[C@H]21 [Compound 6]
### Response 36.1

### Prompt State its EC50: C=CCN1C[C@@H](C(=O)N[C@H](C)CC)C=C2c3cccc4[nH]cc(c34)C[C@H]21 [Compound 8a]
### Response 1560

### Prompt State its EC50: CC[C@@H](C)NC(=O)[C@H]1C=C2c3cccc4[nH]cc(c34)C[C@H]2N(CC)C1 [Compound 5a]
### Response 131

### Prompt State its EC50: CC[C@@H](C)NC(=O)[C@@H]1C=C2c3cccc4[nH]cc(c34)C[C@H]2N(CC)C1 [Compound 5]
### Response 0.96

### Prompt State its EC50: CCCN1C[C@H](C(=O)N[C@H](C)CC)C=C2c3cccc4[nH]cc(c34)C[C@H]21 [Compound 3]
### Response 1.79

----------
Exercise: state measured t1/2 for each of the compounds provided.
# ASSAY PROTOCOL: Metabolic stability in mouse liver microsomes (MLM)
# Format: in vitro ADME
# APPLIED CONDITIONS: MLM (CD-1), 1 μM, 0.50 mg protein per mL
Dear colleague, please return just the value in min, with no unit written.

### Prompt State its t1/2: CCN(CC)C(=O)[C@@H]1C=C2c3cccc4[nH]cc(c34)C[C@H]2N(CCC(F)(F)F)C1
### Response 2.1

### Prompt State its t1/2: CCC(CC)NC(=O)[C@@H]1C=C2c3cccc4[nH]cc(c34)C[C@H]2N(C)C1
### Response 6.07

### Prompt State its t1/2: CC[C@@H](C)NC(=O)[C@@H]1C=C2c3cccc4[nH]cc(c34)C[C@H]2N(C)C1
### Response 39.9

### Prompt State its t1/2: C=CCN1C[C@H](C(=O)N[C@H](C)CC)C=C2c3cccc4[nH]cc(c34)C[C@H]21
### Response 3.7

----------
# SYSTEM NAME: human 5-HT2C receptor (Homo sapiens, UniProt P28335)
# Sequence (P28335 33-458): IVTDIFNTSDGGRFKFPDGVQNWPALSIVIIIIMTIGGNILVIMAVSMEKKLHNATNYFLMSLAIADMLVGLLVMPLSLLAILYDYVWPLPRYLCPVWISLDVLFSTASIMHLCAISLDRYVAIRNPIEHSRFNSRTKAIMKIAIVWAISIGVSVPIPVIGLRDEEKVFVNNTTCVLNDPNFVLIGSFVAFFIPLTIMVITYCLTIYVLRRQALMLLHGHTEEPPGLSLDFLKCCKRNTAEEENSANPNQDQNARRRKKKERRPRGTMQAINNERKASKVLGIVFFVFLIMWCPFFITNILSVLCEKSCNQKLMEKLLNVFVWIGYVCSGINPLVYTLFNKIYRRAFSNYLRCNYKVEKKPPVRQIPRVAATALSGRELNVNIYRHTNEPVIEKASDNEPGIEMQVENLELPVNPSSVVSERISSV
# ASSAY PROTOCOL: cell-based
# APPLIED CONDITIONS: Ca^2+ flux, agonist
ASSAY ENDPOINT: EC50
# answer = value followed by unit

### Prompt Please respond with reported EC50 (system human 5-HT2C receptor (Homo sapiens, UniProt P28335)) for CCCN1C[C@H](C(=O)N2[C@@H](C)C[C@@H]2C)C=C2c3cccc4[nH]cc(c34)C[C@H]21 [Compound 4] .
### Response 5.6 nM

### Prompt Please respond with reported EC50 (system human 5-HT2C receptor (Homo sapiens, UniProt P28335)) for CCC[C@@H](C)NC(=O)[C@@H]1C=C2c3cccc4[nH]cc(c34)C[C@H]2N(C)C1 [Int17] .
### Response 2.53 nM

### Prompt Please respond with reported EC50 (system human 5-HT2C receptor (Homo sapiens, UniProt P28335)) for CCC[C@@H](C)NC(=O)[C@@H]1C=C2c3cccc4[nH]cc(c34)C[C@H]2N(CCC)C1 [Compound 7] .
### Response 1.99 nM

### Prompt Please respond with reported EC50 (system human 5-HT2C receptor (Homo sapiens, UniProt P28335)) for CC[C@@H](C)NC(=O)[C@@H]1C=C2c3cccc4[nH]cc(c34)C[C@H]2N(CC)C1 [Compound 5] .
### Response 1.29 nM
